SYSTEM_UNDER_TEST: sGC α1/β1 heterodimer (Homo sapiens, UniProt Q02108+Q02153)
Construct: expressed in transfected cells; host or cells: CHO-K1 (clone #7, CHO-K1/sGC)
Sequence (Q02108 whole entry): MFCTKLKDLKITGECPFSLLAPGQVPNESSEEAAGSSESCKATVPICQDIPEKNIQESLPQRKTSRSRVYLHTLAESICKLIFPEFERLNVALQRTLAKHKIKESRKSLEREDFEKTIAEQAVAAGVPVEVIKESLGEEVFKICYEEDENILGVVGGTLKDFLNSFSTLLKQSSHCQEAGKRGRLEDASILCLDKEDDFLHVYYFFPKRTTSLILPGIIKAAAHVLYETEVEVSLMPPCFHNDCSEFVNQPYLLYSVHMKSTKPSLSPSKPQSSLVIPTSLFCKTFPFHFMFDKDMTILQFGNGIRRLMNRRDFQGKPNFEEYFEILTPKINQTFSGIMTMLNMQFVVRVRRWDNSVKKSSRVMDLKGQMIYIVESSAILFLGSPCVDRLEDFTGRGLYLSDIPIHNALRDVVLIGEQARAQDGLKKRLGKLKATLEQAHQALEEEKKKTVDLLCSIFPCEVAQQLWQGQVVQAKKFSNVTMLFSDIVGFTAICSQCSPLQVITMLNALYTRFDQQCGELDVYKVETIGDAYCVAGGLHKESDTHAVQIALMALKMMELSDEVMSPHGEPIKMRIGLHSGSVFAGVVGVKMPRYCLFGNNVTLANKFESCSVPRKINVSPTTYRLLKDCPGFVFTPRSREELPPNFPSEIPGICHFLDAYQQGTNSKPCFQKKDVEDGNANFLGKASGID
Sequence (Q02153 whole entry): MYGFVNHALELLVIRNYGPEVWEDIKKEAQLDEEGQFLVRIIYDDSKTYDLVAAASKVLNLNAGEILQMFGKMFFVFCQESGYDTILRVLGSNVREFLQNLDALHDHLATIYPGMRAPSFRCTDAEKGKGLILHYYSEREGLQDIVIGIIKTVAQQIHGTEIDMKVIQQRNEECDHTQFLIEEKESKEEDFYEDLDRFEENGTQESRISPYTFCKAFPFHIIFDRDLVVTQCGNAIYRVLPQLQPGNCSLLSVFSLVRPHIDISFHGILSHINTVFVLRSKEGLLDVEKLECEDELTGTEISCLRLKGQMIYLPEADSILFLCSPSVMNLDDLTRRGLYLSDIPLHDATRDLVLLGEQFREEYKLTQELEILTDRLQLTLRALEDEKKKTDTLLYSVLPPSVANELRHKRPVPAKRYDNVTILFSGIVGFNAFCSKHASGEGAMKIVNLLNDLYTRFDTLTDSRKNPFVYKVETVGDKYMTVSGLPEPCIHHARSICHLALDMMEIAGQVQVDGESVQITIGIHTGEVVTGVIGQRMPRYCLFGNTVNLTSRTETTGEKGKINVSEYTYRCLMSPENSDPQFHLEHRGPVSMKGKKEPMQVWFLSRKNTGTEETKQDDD
ASSAY_NAME: Cell-based sGC functional assay (CASA assay): cGMP generation in CHO-K1/sGC cells, HTRF detection
TEST_SETTINGS: CHO-K1, percent activation relative to standard Compound A in CHO-K1/sGC cells; read-out: % Act.
QUANTITY: Emax (%)
Please state the figure in %; there is no need to write the unit.

Some solved cases for reference:
COMPOUND	SYSTEM_UNDER_TEST	NUMERIC_READOUT
Cc1nc2c(CCC(F)(F)C(F)(F)F)nc(-c3nc(N)c4c(n3)NC(=O)C4(C)c3ccc(F)cc3)cn2c1C#N (stereo not drawn) [Example 274A]	sGC α1/β1 heterodimer (Homo sapiens, UniProt Q02108+Q02153)	100
CCc1cnc2c(CCC(F)(F)C(F)(F)F)nc(-c3nc(N)c4c(n3)NC(=O)C4(C)c3ccc(F)cc3)cn12 (stereo not drawn) [Example 161A]	sGC α1/β1 heterodimer (Homo sapiens, UniProt Q02108+Q02153)	76
CCC1(c2ccc(F)cc2)C(=O)Nc2nc(-c3cn4ccnc4c(CCCC(F)(F)F)n3)nc(N)c21 (stereo not drawn) [Example 215A]	sGC α1/β1 heterodimer (Homo sapiens, UniProt Q02108+Q02153)	107
CC1(c2ccc(F)cc2)C(=O)Nc2nc(-c3cn4cc(C(F)(F)F)nc4c(Cc4ccc(F)c(F)c4)n3)nc(N)c21 (stereo not drawn) [Example 152A]	sGC α1/β1 heterodimer (Homo sapiens, UniProt Q02108+Q02153)	129
COc1ccc(C2(C)C(=O)Nc3nc(-c4cn5ccnc5c(CCC(F)(F)C(F)(F)F)n4)nc(N)c32)nc1 (stereo not drawn) [Example 248B]	sGC α1/β1 heterodimer (Homo sapiens, UniProt Q02108+Q02153)	88
CC(C)c1ccc(C2(C)C(=O)Nc3nc(-c4cn5ccnc5c(CCC(F)(F)C(F)(F)F)n4)nc(N)c32)cn1 (stereo not drawn) [Example 251B]	sGC α1/β1 heterodimer (Homo sapiens, UniProt Q02108+Q02153)	85

(Q) Looking for the measured Emax of Cn1nnnc1C1(C2CC2)C(=O)Nc2nc(-c3cn4ccnc4c(CCC(F)(F)C(F)(F)F)n3)nc(N)c21 (single isomer, unassigned) [Example 325A] , can you help?
(A) 83

(Q) Item under review: CC1(c2ccc(Cl)cc2)C(=O)Nc2nc(-c3cn4ccnc4cn3)nc(N3CCC(C(F)(F)F)C3)c21 (racemic) [Example 279A] . Reported Emax?
(A) 69

(Q) Using the record for CCC(CC)Cc1nc(-c2nc(N)c3c(n2)NC(=O)C3(C)c2ccc(Cl)cc2)cn2ccnc12 (stereo not drawn) [Example 9A] , report its Emax.
(A) 134

(Q) Entry under review: Nc1nc(-c2cn3ccnc3c(CCC(F)(F)F)n2)nc2c1C(c1ccc(F)cc1)(C1CC1)C(=O)N2 (stereo not drawn) [Example 194B] . Reported Emax?
(A) 116

(Q) I have this compound here, CCCCc1nc(-c2nc(N)c3c(n2)NC(=O)C3(C)c2ccc(F)cn2)cn2cc(C)nc12 (stereo not drawn) [Example 164B] , and I need its recorded Emax.
(A) 93

(Q) Reported Emax, compound CC(C)Cc1nc(-c2nc(N)c3c(n2)NC(=O)C3(c2ccc(Cl)cc2)C2CC2)cn2ccnc12 (stereo not drawn) [Example 22B] : ____
(A) 91

(Q) For the compound shown here, CCCCc1nc(-c2nc(N)c3c(n2)NC(=O)C3(C)c2ccc(C(F)(F)F)cn2)cn2cc(C)nc12 (stereo not drawn) [Example 166B] , give the reported Emax.
(A) 94
